conditions: in methanol, 277.78 K
reportedMetric: solubility (mole fraction)
Keep it simple and answer with nothing but the number.

Reported solubility (mole fraction) for CC(C)=CCC[C@@H](C)[C@H]1CC[C@@]2(C)C3=C(CC[C@]12C)[C@@]1(C)CC[C@H](O)C(C)(C)[C@@H]1CC3 : what is it?
3e-05

###

settings: in DMSO, 318.69 K
reportedMetric: solubility (mole fraction)
Keep it simple and answer with nothing but the number.

Reported solubility (mole fraction) for CC(C)=CCC[C@@H](C)[C@H]1CC[C@@]2(C)C3=C(CC[C@]12C)[C@@]1(C)CC[C@H](O)C(C)(C)[C@@H]1CC3 : what is it?
0.00057
